Tested on: NK-92 (IL-2 2.5 ng/mL);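 further: normalised to DMSO-only wells as negative and benzethonium chloride as positive control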
Assay: percent inhibition of viability; higher = more inhibition
Conditions: 72 h; 100 nM
parameter: percent inhibition of viability (%)

1) N#Cc1ccc(COC[C@H]2O[C@@H](n3c(NCc4ccc(Cl)c(Cl)c4)nc4c(N)ncnc43)[C@H](O)[C@@H]2O)cc1 (max concentration tested 10000 nM) :: -4.4
2) C=CCc1cccc(/C=N/NC(=O)CN2CCN(Cc3ccccc3)CC2)c1O [PAC-1] (max concentration tested 10000 nM) :: 17.2
3) COCC(=O)NC/C=C/c1ccc2ncnc(Nc3ccc(Oc4ccc(C)nc4)c(C)c3)c2c1 (max concentration tested 10000 nM) :: 6.53
4) COc1cccc2c1C(=O)c1c(O)c3c(c(O)c1C2=O)C[C@@](O)(C(=O)CO)C[C@@H]3O[C@H]1C[C@H](N)[C@H](O)[C@H](C)O1 [Doxorubicin] (max concentration tested 1000 nM) :: 64.2
5) C[C@@H](Nc1cc(F)cc(F)c1)c1cc(C(=O)N(C)C)cc2c(=O)cc(N3CCOCC3)oc12 [AZD-8186] (max concentration tested 1000 nM) :: 7.87
6) Nc1nc2[nH]cnc2c(=S)[nH]1 [Thioguanine] (max concentration tested 10000 nM) :: 17.5
7) C[C@@]1(C(=O)Nc2ccc(F)nc2)CCCN1c1nc(Nc2cc(C3CC3)n[nH]2)c2cccn2n1 (max concentration tested 10000 nM) :: 7.85
8) CN1CCN(c2ccc3nc(-c4c(N)c5c(F)cccc5[nH]c4=O)[nH]c3c2)CC1 [Dovitinib] (max concentration tested 10000 nM) :: -3.15
